target: NEDD8-conjugating enzyme Ubc12 (Homo sapiens) + NEDD8-activating enzyme E1 regulatory subunit (Homo sapiens) (UniProt P61081+Q13564); assay: inhibitors of CUL1 neddylation, potency, dose response, biochemical, TR-FRET (AID 652247); conditions: in vitro CUL1 neddylation
Sequence (P61081 whole entry, looked up): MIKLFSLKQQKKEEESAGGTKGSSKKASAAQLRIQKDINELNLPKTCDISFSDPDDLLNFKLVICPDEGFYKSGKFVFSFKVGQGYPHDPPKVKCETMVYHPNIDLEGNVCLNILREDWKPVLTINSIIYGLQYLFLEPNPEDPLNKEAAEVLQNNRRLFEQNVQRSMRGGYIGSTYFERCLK
Sequence (Q13564 whole entry, looked up): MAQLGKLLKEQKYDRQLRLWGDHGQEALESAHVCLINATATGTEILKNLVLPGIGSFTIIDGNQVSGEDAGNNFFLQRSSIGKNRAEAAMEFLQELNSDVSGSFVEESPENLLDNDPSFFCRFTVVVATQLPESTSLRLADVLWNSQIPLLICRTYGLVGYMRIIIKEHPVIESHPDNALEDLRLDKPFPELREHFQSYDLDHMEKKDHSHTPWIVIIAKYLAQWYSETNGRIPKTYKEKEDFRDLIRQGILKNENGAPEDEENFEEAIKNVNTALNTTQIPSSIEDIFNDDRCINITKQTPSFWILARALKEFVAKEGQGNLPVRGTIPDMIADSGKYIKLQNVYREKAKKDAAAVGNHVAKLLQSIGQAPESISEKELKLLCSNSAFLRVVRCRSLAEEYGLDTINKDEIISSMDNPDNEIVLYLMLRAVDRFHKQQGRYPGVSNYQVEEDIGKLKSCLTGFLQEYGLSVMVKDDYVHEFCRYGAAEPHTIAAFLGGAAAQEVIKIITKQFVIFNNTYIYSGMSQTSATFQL
Calls of active or inactive are those of the source. How the calls were made is not given here.
A correct response names exactly one class from active, inactive

Use these answered entries as a reference point.
- CC(=O)c1ccc(-c2ccc(C(=O)NCC(c3ccc(F)cc3)N3CCOCC3)o2)cc1 (stereo not given): inactive
- CCOC(=O)c1cc2c(=O)n3ccccc3nc2n(C(C)C)c1=NC(=O)c1ccncc1: inactive
- O=C(NC1CCCCC1)C(c1ccncc1)n1c(=O)c(-c2ccccc2)nc2ccccc21 (stereo not given): inactive
- Cc1c(Cc2ccccc2)c(=O)oc2c(C)c(OCc3nn[nH]n3)ccc12: inactive
- O=c1[nH]cnc2nc(-c3ccccc3)c(-c3ccccc3)nc12: inactive
- CCN(/N=C/c1ccc(N(C)C)cc1)c1nc2ccccc2[nH]1: inactive

Assay outcome for Cc1cccn2c(=O)c3cc(C(=O)N4CCN(Cc5ccccc5)CC4)sc3nc12 : what was it?
active

Assay outcome for O=C(CSc1cccc2cccnc12)Nc1cc(C(=O)O)cc(C(=O)O)c1 : what was it?
inactive

Assay outcome for CC(=O)Nc1cc(-c2ccc(N3CCN(C)CC3)cc2)cn2c(-c3ccc(F)cc3)cnc12 : what was it?
inactive

Assay outcome for COc1cc2sc(-c3ccc(S(C)(=O)=O)cc3)c(C#CCO)c2cc1OC : what was it?
inactive

---

target: NEDD8-conjugating enzyme Ubc12 (Homo sapiens) + NEDD8-activating enzyme E1 regulatory subunit (Homo sapiens) (UniProt P61081+Q13564); experiment: inhibitors of CUL1 neddylation, potency, dose response, biochemical, TR-FRET (AID 652247); settings: in vitro CUL1 neddylation
Activity calls are given as the source filed them. No rule for the calls is given here.
A correct response names exactly one class from T for active, F for inactive

Use these answered entries as a reference point.
• N=c1c(C(=O)NCCN2CCOCC2)cc2c(=O)n3ccccc3nc2n1Cc1ccc(F)cc1 = T
• Cc1cccc(OCC(=O)N/N=C/c2ccc(N(C)C)cc2)c1 = F
• COCCNC(=O)c1ccc2c3n(nc2c1)-c1ccc(C)cc1CO3 = F
• COc1ccc(OC)c(C=NNC(=O)c2ccccc2NS(=O)(=O)c2cccs2)c1 = F

Now take the following compound into account.
Assay outcome for Cc1cc(NS(=O)(=O)c2ccc(NC(=O)c3cc4c(=O)n5ccccc5nc4s3)cc2)nc(C)n1 : what was it?
T

---

biological target: NEDD8-conjugating enzyme Ubc12 (Homo sapiens) + NEDD8-activating enzyme E1 regulatory subunit (Homo sapiens) (UniProt P61081+Q13564); test: inhibitors of CUL1 neddylation, potency, dose response, biochemical, TR-FRET (AID 652247); details: in vitro CUL1 neddylation
Calls of active or inactive are those of the source. How the calls were made is not given here.
READOUT NAME: IC50

- COc1ccc(-n2cc(CNCc3cnc4ccccn34)c(-c3cccc(F)c3)n2)cc1: inactive
- CCCCc1c(O)n2c(nc3ccccc32)[nH]c1=O: inactive
- CCN(CC)CCOC(=O)c1ccc(N/C=C(/C#N)c2nc(-c3ccc(OC)cc3)cs2)cc1: > 100 µM (inactive)
- O=C(N/N=C/c1c(O)n(-c2ccccc2Cl)c(=O)c2ccccc12)C1COc2ccccc2O1 (centres undefined): inactive
